Recorded values, source PubChem BioAssay AID1159536.

- Tested on: Chlamydomonas reinhardtii, Nile Red lipid fluorescence, 72 h
- TEST SUMMARY: compounds raising TAG storage in Chlamydomonas – qHTS, Chlamydomonas reinhardtii, dose response (AID 1159536)
Results filed as inconclusive are left out. The source made the active and inactive calls. How the calls were made is not given here.
Please reply with one of these outcomes: True for active, False for inactive

>>> print(df.to_string())
                                   compound  class_label
0     O=C(CN1CCCCC1)Nc1ncc(Cc2ccc(Br)cc2)s1        False
1  CC(C)(C)C1CCC(NCc2ccncc2)CC1 (stereo not drawn)         True
2             Cc1ccc(C(C)C)cc1OCCCCN1CCOCC1         True

What call does the record list for Oc1ccc(Cl)cc1CN1CCN(Cc2ccccc2)CC1 ?
True

What call does the record list for O=C(O)CCSCC(=O)c1ccc(NS(=O)(=O)c2ccccc2)cc1 ?
False

What call does the record list for COc1ccc(OC)c(CNCCc2ccc([N+](=O)[O-])cc2)c1 ?
True

What call does the record list for Clc1ccc(OCCCCN2CCOCC2)c(Br)c1 ?
True

###

- Test system: Chlamydomonas reinhardtii, Nile Red lipid fluorescence, 72 h
- TEST SUMMARY: compounds raising TAG storage in Chlamydomonas – qHTS, Chlamydomonas reinhardtii, dose response (AID 1159536)
Results filed as inconclusive are left out. The source made the active and inactive calls. No rule for the calls is given here.
Please reply with one of these outcomes: True for active, False for inactive

                                   compound  class_label
0  CCC(C)N1CCN(Cc2ccc([N+](=O)[O-])cc2)CC1 (stereo unspecified)         True

What call does the record list for COc1cc(C(=O)Nc2nc3c(s2)CCCC3)cc(OC)c1OC ?
False

What call does the record list for CC1CCN(S(=O)(=O)c2ccc(NC(=O)c3cccc([N+](=O)[O-])c3)cc2)CC1 ?
True

What call does the record list for COc1cccc(NC2=C(N(C)C)C(=O)c3ccccc3C2=O)c1 ?
False

What call does the record list for CC1(C)CC(NC(=O)Cc2ccccc2[N+](=O)[O-])CC(C)(C)N1 ?
False

What call does the record list for COc1ccccc1N1CCN(C2CCN(Cc3cccc(F)c3)CC2)CC1 ?
True

###

- Tested on: Chlamydomonas reinhardtii, Nile Red lipid fluorescence, 72 h
- TEST SUMMARY: compounds raising TAG storage in Chlamydomonas – qHTS, Chlamydomonas reinhardtii, dose response (AID 1159536)
Inconclusive results are not listed. The source made the active and inactive calls. No rule for the calls is given here.
Please reply with one of these outcomes: Yes for active, No for inactive

In [3]: df
Out[3]:
                                   molecule  class_label
0            COc1cccc(N2CCN(Cc3ccsc3)CC2)c1          Yes
1  O=C(Nc1ccc(Cc2ccncc2)cc1)c1ccc([N+](=O)[O-])cc1Cl           No
2      Cc1ccc2nc(SCc3ccccc3)c(C=O)c(=O)n2c1          Yes

What call does the record list for COc1ccc(CN(C)C2CCCCC2)cc1 ?
Yes

What call does the record list for Nc1ccc(F)cc1C(=O)c1ccccc1 ?
Yes

What call does the record list for CN1CCN(CCOc2ccc(C(C)(C)c3ccccc3)cc2)CC1 ?
No

What call does the record list for Clc1ccccc1-c1nnc(-c2ccccc2)o1 ?
Yes

What call does the record list for CN(Cc1ccc([N+](=O)[O-])cc1)C1CCCCC1 ?
Yes

What call does the record list for c1ccc(N2CCN(Cc3ccsc3)CC2)cc1 ?
Yes

What call does the record list for CCOc1ccc(CN2CCN(c3ccccc3OC)CC2)cc1 ?
Yes

What call does the record list for Cc1ccc(OCCCCN2CCCCC2)c(C)c1 ?
Yes

What call does the record list for CCc1ccc(CN2CCN(CCO)CC2)cc1 ?
Yes

What call does the record list for C(#CCN1CCCCC1)COc1ccccc1 ?
Yes

What call does the record list for CCN1CCN(C(=O)c2ccc(C(C)(C)C)cc2)CC1 ?
Yes

What call does the record list for C/C(=C\c1ccccc1)CN(C)CCN(C)C ?
Yes

What call does the record list for Clc1ccc(N2CCN(Cc3ccsc3)CC2)cc1 ?
Yes

What call does the record list for Nn1c(SCC(=O)NC23CC4CC(CC(C4)C2)C3)nnc1-c1ccc(Cl)cc1Cl ?
Yes

What call does the record list for COc1ccc(OC)c(CN2CCN(Cc3ccc([N+](=O)[O-])cc3)CC2)c1 ?
Yes

What call does the record list for Cc1c(NC(=O)c2c(F)c(F)c(F)c(F)c2F)c(=O)n(-c2ccccc2)n1C ?
No

What call does the record list for COc1cc(C)c(CN2CCN(Cc3ccc4c(c3)OCO4)CC2)cc1C ?
Yes

What call does the record list for COc1cccc(N2CCN(Cc3ccc([N+](=O)[O-])cc3)CC2)c1 ?
Yes

What call does the record list for CCC(C)c1ccc(OCCCN2CCN(C)CC2)cc1 (stereo not given) ?
Yes

What call does the record list for Cc1ccc(C(=O)Nc2ccccc2C(=O)NC(C)C)cc1[N+](=O)[O-] ?
No

What call does the record list for Oc1ccc(CN2CCN(c3cccc(Cl)c3)CC2)cc1 ?
Yes

What call does the record list for Brc1ccc(CN2CCN(c3ccccc3)CC2)cc1 ?
Yes

###

- Test system: Chlamydomonas reinhardtii, Nile Red lipid fluorescence, 72 h
- TEST SUMMARY: compounds raising TAG storage in Chlamydomonas – qHTS, Chlamydomonas reinhardtii, dose response (AID 1159536)
Inconclusive results are not listed. Activity calls are given as the source filed them. The rule behind the calls is not given here.
Please reply with one of these outcomes: active, inactive

Worked cases, answers included:
In [3]: df
Out[3]:
                                   compound  class_label
0             COc1cc(C)c(CN2CCCN(C)CC2)cc1C       active
1            Clc1ccc(OCCOCCN2CCOCC2)c(Br)c1       active
2  CC(C(=O)NCc1ccc(Cl)cc1)N(c1ccccc1)S(C)(=O)=O (configuration not stated)     inactive

Continue with the next compound.
What call does the record list for CC(C)c1ccc(CN2CCN(C)CC2)cc1 ?
active

###

- Test system: Chlamydomonas reinhardtii, Nile Red lipid fluorescence, 72 h
- TEST SUMMARY: compounds raising TAG storage in Chlamydomonas – qHTS, Chlamydomonas reinhardtii, dose response (AID 1159536)
Results filed as inconclusive are left out. The source made the active and inactive calls. How the calls were made is not given here.
RECORDED ENDPOINT: EC50

Here is how some compounds turned out for EC50.
                                   compound              result
0        C/C=C(\C)CN1CCN(C/C=C/c2ccccc2)CC1             1.28 µM
1  Cc1cc(C)c(NC(=O)COc2ccccc2[N+](=O)[O-])c(C)c1  3.13 µM (inactive)
2  CCC(C)c1ccccc1OCCOCCN1CCOCC1 (stereo unspecified)             13.1 µM
3  CCN1CCN(C2CCC(C)CC2)CC1 (stereo unspecified)             9.97 µM
4          CCN(CC)CC#Cc1ccc(C#CCN(CC)CC)cc1             4.15 µM

Please look at the following compound next.
For Cc1cccc(-c2cc(NC(=O)c3ccc([N+](=O)[O-])cc3)n[nH]2)c1 , write its EC50.
6.94 µM

###

- Test system: Chlamydomonas reinhardtii, Nile Red lipid fluorescence, 72 h
- TEST SUMMARY: compounds raising TAG storage in Chlamydomonas – qHTS, Chlamydomonas reinhardtii, dose response (AID 1159536)
Inconclusive results are not listed. Calls of active or inactive are those of the source. How the calls were made is not given here.
Please reply with one of these outcomes: 1.0 (active), 0.0 (inactive)

>>> df
                                   compound                              assay_system  class_label
0            c1ccc(CCN2CCN(c3ccccc3)CC2)cc1  Chlamydomonas reinhardtii, Nile Red lipid fluorescence, 72 h          1.0
1         CC(C)NCC(=O)NC12CC3CC(CC(C3)C1)C2  Chlamydomonas reinhardtii, Nile Red lipid fluorescence, 72 h          1.0
2  OCCN1CCN(C2C3CC4CC(C3)CC2C4)CC1 (stereo not given)  Chlamydomonas reinhardtii, Nile Red lipid fluorescence, 72 h          1.0
3      CCC(CC)C(=O)Nc1ccc(C(=O)Nc2nccs2)cc1  Chlamydomonas reinhardtii, Nile Red lipid fluorescence, 72 h          0.0
4          Fc1ccc(CN2CCN(c3ccccc3Cl)CC2)cc1  Chlamydomonas reinhardtii, Nile Red lipid fluorescence, 72 h          1.0

Continue with the next compound.
What call does the record list for COc1ccc(NC(=O)CCC2CCCCC2)c([N+](=O)[O-])c1 ?
1.0
